system: Kras and SOS1 (biotin-tagged human Kras loaded with GDP, His-tagged human SOS1) (Homo sapiens, UniProt P01116, G12D)
Construct: made in house; host or cells: E. coli (stated for Kras only)
Sequence (P01116 1-188 isoform P01116-2 G12D): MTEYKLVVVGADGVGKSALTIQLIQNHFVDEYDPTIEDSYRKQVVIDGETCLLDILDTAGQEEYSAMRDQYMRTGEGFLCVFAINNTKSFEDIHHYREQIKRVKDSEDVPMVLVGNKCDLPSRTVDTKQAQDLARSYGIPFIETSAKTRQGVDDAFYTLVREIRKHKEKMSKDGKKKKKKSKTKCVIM
procedure.text: Protein-protein interaction inhibition between Kras and SOS1 (KrasGl2D-SOS PPI) using AlphaScreen
Type: binding
recorded.conditions: AlphaScreen; biotin-tagged human Kras loaded with GDP, His-tagged human SOS1; read-out: KRAS G12D-SOS PPI IC50
Starred links: 1 amine or outer side, 2 acyl side, 3 side chain; linkers in the order of their positions; H or OH if unused. Positions of bridges follow the written chain, without caps; N, C: chain ends. Non-standard residues stand in square brackets, D forms with d. Residues, ends and D or L forms follow the SMILES beside them. *: point of attachment. hPhe(3-Cl-4-CF3) = N[C@@H](CCc1ccc(C(F)(F)F)c(Cl)c1)C(=O)O; hPhe(3-F,4-CF3) = N[C@@H](CCc1ccc(C(F)(F)F)c(F)c1)C(=O)O; NMePhe(4-CF3) = CN[C@@H](Cc1ccc(C(F)(F)F)cc1)C(=O)O; 3Oxa8azabicyclo(3.2.1)octane = C1CC2COCC1N2*; NMeAbu(4,4,4-F3) = CN[C@@H](CC(F)(F)F)C(=O)O; hPhe(4-Cl) = N[C@@H](CCc1ccc(Cl)cc1)C(=O)O; X26 = O=C([C@@H]1CCC[C@H]1N[*:1])[*:2]; NMeCha = CN[C@@H](CC1CCCCC1)C(=O)O; NMeChg = CN[C@H](C(=O)O)C1CCCCC1; NMeD = CN[C@@H](CC(=O)O)C(=O)O; NMeL = CN[C@@H](CC(C)C)C(=O)O; NMeV = CN[C@H](C(=O)O)C(C)C; Piperidide = C1CCN(*)CC1; Ac5c = NC1(C(=O)O)CCCC1; Sar = CNCC(=O)O
For each record, write down the corresponding pIC50.
Would you please state pIC50, meaning minus log10 of the concentration in mol/L, as a bare number?

Answer with the recorded pIC50 for the compound listed here: CC(C)C[C@H]1C(=O)N[C@@H](C(C)C)C(=O)N(C)CC(=O)N(C)CC(=O)N(C)[C@@H](CC2CCCCC2)C(=O)N(C)CC(=O)N[C@@H](CCc2ccc(C(F)(F)F)c(Cl)c2)C(=O)N2CCC[C@H]2C(=O)NC2(CCCC2)C(=O)N(C)[C@@H](C2CCCCC2)C(=O)N(C)[C@H](C(=O)N2CCCCC2)CC(=O)N1C [Compound 1798] ([NMeL]V[Sar][Sar][NMeCha][Sar][hPhe(3-Cl-4-CF3)]P[Ac5c][NMeChg][NMeD]-Piperidide; lactam N-11)
9.00

Answer with the recorded pIC50 for the compound listed here: CC[C@H](C)[C@@H]1NC(=O)[C@H](CC(C)C)N(C)C(=O)C[C@@H](C(=O)N2CCCCC2)N(C)C(=O)[C@H](C(C)C)N(C)C(=O)C2(CCCC2)NC(=O)[C@@H]2CCCN2C(=O)[C@H](CCc2ccc(C(F)(F)F)c(F)c2)NC(=O)CN(C)C(=O)[C@H](CC2CCCCC2)N(C)C(=O)CN(C)C(=O)CN(C)C1=O [Compound 1454] ([NMeL]I[Sar][Sar][NMeCha][Sar][hPhe(3-F,4-CF3)]P[Ac5c][NMeV][NMeD]-Piperidide; lactam N-11)
7.96

Answer with the recorded pIC50 for the compound listed here: CC[C@H](C)[C@@H]1NC(=O)[C@H](CC(C)C)N(C)C(=O)[C@@H]2CCC[C@H]2NC(=O)[C@H](C(C)C)N(C)C(=O)C2(CCCC2)NC(=O)[C@@H]2CCCN2C(=O)[C@H](CCc2ccc(C(F)(F)F)c(Cl)c2)NC(=O)CN(C)C(=O)[C@H](CC2CCCCC2)N(C)C(=O)CN(C)C(=O)CN(C)C1=O [Compound 347] (cyclo([Ac5c][NMeV][X26][NMeL]I[Sar][Sar][NMeCha][Sar][hPhe(3-Cl-4-CF3)]P))
7.57

Answer with the recorded pIC50 for the compound listed here: CC[C@H](C)[C@@H]1NC(=O)[C@H](CC(F)(F)F)N(C)C(=O)C[C@@H](C(=O)N2C3CCC2COC3)N(C)C(=O)[C@H](C2CCCCC2)N(C)C(=O)C2(CCCC2)NC(=O)[C@@H]2CCCN2C(=O)[C@H](CCc2ccc(C(F)(F)F)c(Cl)c2)NC(=O)CN(C)C(=O)[C@H](Cc2ccc(C(F)(F)F)cc2)N(C)C(=O)CN(C)C(=O)CN(C)C1=O [Compound 173] ([NMeAbu(4,4,4-F3)]I[Sar][Sar][NMePhe(4-CF3)][Sar][hPhe(3-Cl-4-CF3)]P[Ac5c][NMeChg][NMeD]-{3Oxa8azabicyclo(3.2.1)octane}; lactam N-11)
9.25

Answer with the recorded pIC50 for the compound listed here: CC[C@H](C)[C@@H]1NC(=O)[C@H](CC(C)C)N(C)C(=O)C[C@@H](C(=O)N2CCCCC2)N(C)C(=O)[C@H](C(C)C)N(C)C(=O)C2(CCCC2)NC(=O)[C@@H]2CCCN2C(=O)[C@H](CCc2ccc(Cl)cc2)NC(=O)CN(C)C(=O)[C@H](CC2CCCCC2)N(C)C(=O)CN(C)C(=O)CN(C)C1=O [Compound 893] ([NMeL]I[Sar][Sar][NMeCha][Sar][hPhe(4-Cl)]P[Ac5c][NMeV][NMeD]-Piperidide; lactam N-11)
7.68

---

system: Kras and SOS1 (biotin-tagged human Kras loaded with GDP, His-tagged human SOS1) (Homo sapiens, UniProt P01116, G12D)
Construct: made in house; host or cells: E. coli (stated for Kras only)
procedure.text: Protein-protein interaction inhibition between Kras and SOS1 (KrasGl2D-SOS PPI) using AlphaScreen
Type: binding
recorded.conditions: AlphaScreen; biotin-tagged human Kras loaded with GDP, His-tagged human SOS1; read-out: KRAS G12D-SOS PPI IC50
Starred links: 1 amine or outer side, 2 acyl side, 3 side chain; linkers in the order of their positions; H or OH if unused. Positions of bridges follow the written chain, without caps; N, C: chain ends. Non-standard residues stand in square brackets, D forms with d. Residues, ends and D or L forms follow the SMILES beside them. *: point of attachment. hPhe(3-Cl-4-CF3) = N[C@@H](CCc1ccc(C(F)(F)F)c(Cl)c1)C(=O)O; NMePhe(4-CF3) = CN[C@@H](Cc1ccc(C(F)(F)F)cc1)C(=O)O; NMePhe(4-Cl) = CN[C@@H](Cc1ccc(Cl)cc1)C(=O)O; NMePhe(3-F) = CN[C@@H](Cc1cccc(F)c1)C(=O)O; NMedβ3hAla = C[C@H](CC(=O)[*:2])N(C)[*:1]; Phe(3-Br) = N[C@@H](Cc1cccc(Br)c1)C(=O)O; hPhe(4-F) = N[C@@H](CCc1ccc(F)cc1)C(=O)O; NMeGly(cPent) = CN[C@H](C(=O)O)C1CCCC1; Phe(3-I) = N[C@@H](Cc1cccc(I)c1)C(=O)O; Pro(4,4-F2) = O=C(O)[C@@H]1CC(F)(F)CN1; NMeCha = CN[C@@H](CC1CCCCC1)C(=O)O; NMeF = CN[C@@H](Cc1ccccc1)C(=O)O; NMeI = CC[C@H](C)[C@H](NC)C(=O)O; NMeD = CN[C@@H](CC(=O)O)C(=O)O; CH2CONHtBu = CC(C)(C)NC(=O)C*; NMeL = CN[C@@H](CC(C)C)C(=O)O; NMeV = CN[C@H](C(=O)O)C(C)C; NMeS = CN[C@@H](CO)C(=O)O; NMeA = CN[C@@H](C)C(=O)O; NMeAib = CNC(C)(C)C(=O)O; Nle = CCCC[C@H](N)C(=O)O; Piperidide = C1CCN(*)CC1; Pra = C#CC[C@H](N)C(=O)O; Pyrrolidide = C1CCN(*)C1; dNMeA = CN[C@H](C)C(=O)O; Ac5c = NC1(C(=O)O)CCCC1; Aze = O=C(O)[C@@H]1CCN1; Ac4c = NC1(C(=O)O)CCC1; Sar = CNCC(=O)O
measure.name: pIC50
Would you please state pIC50, meaning minus log10 of the concentration in mol/L, as a bare number?

Answer with the recorded pIC50 for the compound listed here: CC[C@H](C)[C@@H]1NC(=O)[C@H](CC(C)C)N(C)C(=O)C[C@@H](C(=O)N2CCCCC2)N(C)C(=O)[C@H]([C@@H](C)CC)N(C)C(=O)C2(CCCC2)NC(=O)[C@@H]2CCCN2C(=O)[C@H](CCc2ccc(C(F)(F)F)c(Cl)c2)NC(=O)CN(C)C(=O)[C@H](CC2CCCCC2)N(C)C(=O)CN(C)C(=O)CN(C)C1=O [Compound 311] ([NMeL]I[Sar][Sar][NMeCha][Sar][hPhe(3-Cl-4-CF3)]P[Ac5c][NMeI][NMeD]-Piperidide; lactam N-11)
8.23

Answer with the recorded pIC50 for the compound listed here: CC[C@H](C)[C@@H]1NC(=O)[C@H](C)N(C)C(=O)C[C@@H](C)N(C)C(=O)[C@H](CC(C)C)NC(=O)C(C)(C)N(C)C(=O)[C@H](CC(C)C)NC(=O)[C@H](CCc2ccc(C(F)(F)F)c(Cl)c2)NC(=O)[C@@H](C)N(C)C(=O)[C@H](Cc2ccc(C(F)(F)F)cc2)N(C)C(=O)[C@@H]2CCN2C(=O)CN(C)C1=O [Compound 1383] (cyclo([Aze][NMePhe(4-CF3)][dNMeA][hPhe(3-Cl-4-CF3)]L[NMeAib]L[NMedβ3hAla][NMeA]I[Sar]))
6.89

Answer with the recorded pIC50 for the compound listed here: CC[C@H](C)[C@@H]1NC(=O)[C@H](CC(C)C)N(C)C(=O)C[C@@H](C)N(C)C(=O)[C@H]([C@@H](C)CC)N(C)C(=O)C2(CCC2)NC(=O)[C@@H]2CC(F)(F)CN2C(=O)[C@H](CCc2ccc(C(F)(F)F)c(Cl)c2)NC(=O)CN(C)C(=O)[C@H](Cc2ccc(C(F)(F)F)cc2)N(C)C(=O)CN(C)C(=O)CN(C)C1=O [Compound 1074] (cyclo([Ac4c][NMeI][NMedβ3hAla][NMeL]I[Sar][Sar][NMePhe(4-CF3)][Sar][hPhe(3-Cl-4-CF3)][Pro(4,4-F2)]))
7.96

Answer with the recorded pIC50 for the compound listed here: CC[C@H](C)[C@@H]1NC(=O)[C@H](CC(C)C)N(C)C(=O)C[C@@H](C(=O)N(C)C)N(C)C(=O)[C@H](C2CCCC2)N(C)C(=O)C2(CCCC2)NC(=O)[C@H](Cc2cccc(F)c2)N(C)C(=O)[C@H](CCc2ccc(C(F)(F)F)c(Cl)c2)NC(=O)CN(C)C(=O)[C@H](CC2CCCCC2)N(C)C(=O)[C@@H]2CCN2C(=O)[C@H](C)N(C)C1=O [Compound 95] ([NMeL]I[NMeA][Aze][NMeCha][Sar][hPhe(3-Cl-4-CF3)][NMePhe(3-F)][Ac5c][NMeGly(cPent)][NMeD]-NMe2; lactam N-11)
7.96

Answer with the recorded pIC50 for the compound listed here: CC[C@H](C)[C@@H]1NC(=O)[C@H](CC(C)C)N(C)C(=O)C[C@@H](C(=O)N2CCCCC2)N(C)C(=O)[C@H](COC)N(C)C(=O)C2(CCCC2)NC(=O)[C@@H]2CCCN2C(=O)[C@H](CCc2ccc(C(F)(F)F)c(Cl)c2)NC(=O)CN(C)C(=O)[C@H](CC2CCCCC2)N(C)C(=O)CN(C)C(=O)CN(C)C1=O [Compound 850] ([NMeL]I[Sar][Sar][NMeCha][Sar][hPhe(3-Cl-4-CF3)]P[Ac5c][NMeS](Me)[NMeD]-Piperidide; lactam N-11)
7.62

Answer with the recorded pIC50 for the compound listed here: CC[C@H](C)[C@@H]1NC(=O)[C@H](CC(C)C)N(C)C(=O)C[C@@H](C(=O)N2CCCCC2)N(C)C(=O)[C@H](C(C)C)N(C)C(=O)C2(CCCC2)NC(=O)[C@@H]2CCCN2C(=O)[C@H](CCc2ccc(C(F)(F)F)c(Cl)c2)NC(=O)CN(C)C(=O)[C@H](CC2CCCCC2)N(C)C(=O)[C@@H]2CCN2C(=O)[C@H](COCC(=O)NC(C)(C)C)N(C)C1=O [Compound 998] ([NMeL]I[NMeS](CH2CONHtBu)[Aze][NMeCha][Sar][hPhe(3-Cl-4-CF3)]P[Ac5c][NMeV][NMeD]-Piperidide; lactam N-11)
7.77

Answer with the recorded pIC50 for the compound listed here: C#CC[C@@H]1NC(=O)[C@H](Cc2cccc(I)c2)NC(=O)CN(C)C(=O)[C@H](Cc2ccc(C(F)(F)F)cc2)N(C)C(=O)CN(C)C(=O)CN(C)C(=O)[C@H]([C@@H](C)CC)NC(=O)[C@H](CC(C)C)N(C)C(=O)C[C@@H](C(=O)N2CCCCC2)N(C)C(=O)[C@H](CC(C)C)NC(=O)C(C)(C)N(C)C1=O [Compound 1361] ([NMeL]I[Sar][Sar][NMePhe(4-CF3)][Sar][Phe(3-I)][Pra][NMeAib]L[NMeD]-Piperidide; lactam N-11)
7.62

Answer with the recorded pIC50 for the compound listed here: CCCC[C@@H]1NC(=O)[C@H](Cc2cccc(Br)c2)NC(=O)CN(C)C(=O)[C@H](Cc2ccc(Cl)cc2)N(C)C(=O)CN(C)C(=O)CN(C)C(=O)[C@H]([C@@H](C)CC)NC(=O)[C@H](CC(C)C)N(C)C(=O)C[C@@H](C(=O)N2CCCCC2)N(C)C(=O)[C@H](CC(C)C)NC(=O)C(C)(C)N(C)C1=O [Compound 1404] ([NMeL]I[Sar][Sar][NMePhe(4-Cl)][Sar][Phe(3-Br)][Nle][NMeAib]L[NMeD]-Piperidide; lactam N-11)
7.77

Answer with the recorded pIC50 for the compound listed here: CC[C@H](C)[C@@H]1NC(=O)[C@H](C)N(C)C(=O)C[C@@H](C(=O)N2CCCC2)NC(=O)[C@H](CC(C)C)N(C)C(=O)[C@H](Cc2ccccc2)N(C)C(=O)[C@H](CC(C)C)NC(=O)[C@H](CCc2ccc(F)cc2)NC(=O)CN(C)C(=O)[C@H](Cc2ccc(Cl)cc2)N(C)C(=O)CN(C)C(=O)CN(C)C1=O [Compound 646] ([NMeA]I[Sar][Sar][NMePhe(4-Cl)][Sar][hPhe(4-F)]L[NMeF][NMeL]D-Pyrrolidide; lactam N-11)
6.92
